Test system: Escherichia coli TOP10;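 further: peptides expressed intracellularly from a pBAD plasmid library in pooled LB shake-flask culture, induced with 0.3% L-arabinose, DNA abundance read by NGS, three biological replicates, DESeq2 with apeglm shrinkage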
Measurement Protocol: shrunken log2 fold change of peptide-encoding DNA abundance (4.5 h post-induction vs induction); higher = less antimicrobial activity (less host growth inhibition)
Condition Context: time post-induction: 4.5 h; library: site-saturation at positions 5, 18, 19, 20
Recorded Endpoint: shrunken log2 fold change
The response must contain the number and no unit.

Record excerpt, results attached:
## Task Given RRIRSRPPRLPRPRPRPVISPRP , state its recorded shrunken log2 fold change.
## Result 0.141

## Task For RRIRARPPRLPRPRPRPQWLPRP then?
## Result 0.144

## Task For RRIRVRPPRLPRPRPRPKLKPRP then?
## Result 0.00388

## Task For RRIRWRPPRLPRPRPRPCQIPRP then?
## Result -0.0592

## Task For RRIRKRPPRLPRPRPRPWCHPRP then?
## Result -0.15

Next:
## Task Given RRIRWRPPRLPRPRPRPFYYPRP , state its recorded shrunken log2 fold change.
## Result -0.138

## Task For RRIRTRPPRLPRPRPRPEHGPRP then?
## Result 0.0391

## Task For RRIRKRPPRLPRPRPRPVLAPRP then?
## Result 0.605

## Task For RRIRMRPPRLPRPRPRPGIEPRP then?
## Result 2.2

## Task For RRIRDRPPRLPRPRPRPMLLPRP then?
## Result 0.307

## Task For RRIRCRPPRLPRPRPRPCLHPRP then?
## Result -0.824

## Task For RRIRSRPPRLPRPRPRPKGYPRP then?
## Result 0.00982
